# SYSTEM: Leukotriene A-4 hydrolase (Cavia porcellus)
# Sequence (P19602 whole entry): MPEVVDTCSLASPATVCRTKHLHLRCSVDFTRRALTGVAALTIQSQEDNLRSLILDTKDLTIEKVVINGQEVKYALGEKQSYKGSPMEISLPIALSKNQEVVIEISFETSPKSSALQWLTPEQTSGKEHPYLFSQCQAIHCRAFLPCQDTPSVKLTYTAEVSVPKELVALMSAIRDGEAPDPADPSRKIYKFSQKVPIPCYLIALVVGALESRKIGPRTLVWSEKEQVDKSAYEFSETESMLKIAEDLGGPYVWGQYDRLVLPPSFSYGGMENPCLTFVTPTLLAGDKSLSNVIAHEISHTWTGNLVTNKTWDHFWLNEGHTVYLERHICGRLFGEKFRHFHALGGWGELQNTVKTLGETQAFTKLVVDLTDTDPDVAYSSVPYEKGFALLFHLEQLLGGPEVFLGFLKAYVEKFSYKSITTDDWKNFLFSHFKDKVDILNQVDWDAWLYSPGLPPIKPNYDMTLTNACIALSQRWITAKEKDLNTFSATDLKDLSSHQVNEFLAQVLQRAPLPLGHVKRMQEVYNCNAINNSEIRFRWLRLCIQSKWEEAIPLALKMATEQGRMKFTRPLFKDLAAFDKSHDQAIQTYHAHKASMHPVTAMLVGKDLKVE
# EXPERIMENTAL PROTOCOL: Inhibition of LTA4 hydrolase in guinea pig lung assessed as inhibition of LTB4 production
# CONDITION SET: read-out: IC50
For each record, check the reported IC50: if it is below 7 µM write Yes, else write No.

Below are worked cases with known answers.
C[C@H](CS)C(=O)N[C@@H](CCSCc1ccc(N(C)C)cc1)C(=O)O | No
C[C@H](CS)C(=O)N[C@@H](CSCc1ccccc1)C(=O)O | No
CC(S)CC(=O)N[C@@H](CSCc1ccc(N(C)C)cc1)C(=O)O (stereo partly drawn) | No
C[C@H](CS)C(=O)N[C@@H](CSCc1ccc(-c2ccccc2)cc1)C(=O)O | Yes
C[C@H](CS)C(=O)N[C@@H](CSCc1ccc(N(C)C)cc1)C(=O)O | Yes
C[C@H](CS)C(=O)N[C@@H](CSC(c1ccccc1)c1ccc(C2CCCCC2)cc1)C(=O)O (stereo partly drawn) | Yes

Now look at this one.
Prompt: Threshold test, IC50 < 7 µM: C[C@H](CS)C(=O)N[C@@H](CSCc1ccc(Cl)cc1)C(=O)O
Response: Yes
